study-target: N-AMDH (Flavobacterium sp.)
Construct: N-AMDH was accumulated in the bacterial cells; endogenous in cells; host or cells: Flavobacterium sp; No. 141-8 (natural producer isolated from soil); enzyme purified from the disrupted bacterial cells
Sequence (P22441 2-271 limits assumed): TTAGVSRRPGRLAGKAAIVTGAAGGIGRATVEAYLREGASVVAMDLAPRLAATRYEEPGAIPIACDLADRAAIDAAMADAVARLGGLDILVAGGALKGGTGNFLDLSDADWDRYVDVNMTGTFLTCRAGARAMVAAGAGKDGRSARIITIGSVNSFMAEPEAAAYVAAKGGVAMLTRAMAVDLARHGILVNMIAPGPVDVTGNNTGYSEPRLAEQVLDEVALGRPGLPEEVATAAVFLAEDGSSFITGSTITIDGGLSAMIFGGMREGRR
procedure-text: N-AMDH enzymatic activity in solutions containing metallic ions and inhibitors
Assay type: biochemical, Flavobacterium sp. No. 141-8
stated-conditions: N-AMDH activity with metallic ion or inhibitor at 2 mM; None = 100; read-out: Residual activity (%)
remaining activity at 2000 µM values, listed per item
Response body: numeric value in %, unit text excluded.

Example molecules with recorded remaining activity at 2000 µM:
molecule	study-target	output-unit	remaining activity at 2000 µM
Nc1ncnc2c1ncn2[C@@H]1O[C@H](COP(=O)(O)O)[C@@H](O)[C@H]1O	N-AMDH (Flavobacterium sp.)	%	76
c1cnc2c(c1)ccc1cccnc12	N-AMDH (Flavobacterium sp.)	%	87
c1ccc(-c2ccccn2)nc1	N-AMDH (Flavobacterium sp.)	%	97
NC(=O)CI [Iodoacetamide]	N-AMDH (Flavobacterium sp.)	%	87

Which measured remaining activity at 2000 µM value corresponds to CCCCCCCCCCCCOS(=O)(=O)O ?
18
